- TARGET: recombinant homotrimeric HA, A/Japan/305/57 H2N2 (Influenza A virus A/Japan/305/57 (H2N2))
- ASSAY TEXT: trimeric HA microarray, transfection set 5
- RUN PARAMETERS: remark: other sources report otherwise
RECORDED METRIC: log10 Trimeric HA Binding RLU (log10 of the value in RLU)
Annotation: log10 of Trimeric HA Binding RLU, RLU basis.

For the binder TCN-504 (3251_K17) (antibody, V domains shown) VH: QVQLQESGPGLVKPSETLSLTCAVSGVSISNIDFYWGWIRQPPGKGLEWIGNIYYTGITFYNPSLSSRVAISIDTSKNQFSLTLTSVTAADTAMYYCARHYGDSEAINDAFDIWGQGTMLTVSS VL: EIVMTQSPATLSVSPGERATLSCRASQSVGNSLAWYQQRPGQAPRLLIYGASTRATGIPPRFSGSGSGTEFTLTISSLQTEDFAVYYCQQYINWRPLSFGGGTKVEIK , what log10 Trimeric HA Binding RLU is on record?
4.37

State the recorded log10 Trimeric HA Binding RLU for this entry: TCN-542 (5079_A16) (antibody, V domains shown) VH: QVQLQESGPGLVKPSQTLSLTCTVSGGSISSGNYYWNWVRQHPGKGLEWIGYIYYRGSTFYNPSLKSRVTISIDTSKNQFSLRLSSVTAADTAVYYCAKDTRSSLDNYQYGMDVWGQGTTVTVSS VL: QTVVTQEPSLTVSPGGTVTLTCASSTGAVTSSYFPNWFQQKPGQAPRPLIYSTTIRHSWTPARFSGSLLGGKAALTLSGVQPEDEADYYCLLYSGGDPVAFGGGTKLTVL
3.71

# query: log10 Trimeric HA Binding RLU of entry TCN-547 (5092_F11) (antibody, V domains shown) VH: QVQLQESGPGLVKPSQTLSLTCTVSGDSISSVDHYWSWIRQHPVKGLEWIGFMYYSASTYYNPSLKSRVTISTDTSKNQFSLRLSSVTAADTAVYYCARGTCAGDCSLHYYYYGLDVWGQGRTVTVSS VL: DIQMTQSPSSLSASVGDRVTITCRASQSISSYLNWYQHKPGKAPKVLMYAVSILQSGVPSRFSGSGSGADFTLTISSLQPEDFATYYCQQSYSSPLTFGGGTKVEIK
3.13

Would you mind telling me what log10 Trimeric HA Binding RLU value was observed for TCN-539 (5056_A08) (antibody, V domains shown) VH: QVQLVESGGGVVQPGRSLRLSCAASEITFITYAMHWVRQAPGKGLEWVALISDDGSNKFYADSVKGRFTISRDNSKNTLYLQMNSLRAEDTAAYYCAREGVYFDSGTYRGYFDYWGQETLVTVSS VL: EIVLTQSPATLSLSPGERATLSCRASQSVSSYLAWYQQKPGQAPRLLIYDASNRATGIPARFSGSGSGTDFTLTISSLEPEDFAVYYCQQRSHWPPITFGQGTRLEIK ?
3.41

Reported log10 Trimeric HA Binding RLU for TCN-557 (5081_A04) (antibody, V domains shown) VH: QVQLVQSGAEVKKPGASVKVSCKASGHTFTGYYIHWVRQAPGQGLEWMGWINPDSGATSSAQNFQGRVTMTGDTSSSTAYMELSRLSFDDTAVYYCARVLFTSPFDFWGEGTLVTVSS VL: QAVVTQEPSLAVSPGGTVTLTCGSSTGAVTRGHYPYWFQQKPGQAPRALIYDSAGNRHSWTPARFSGSLLGGKAALTLSGAQPEDEAEYYCLLSYSGVWVFGGGTKLTVL : what is it?
4.44
